Reference source for all entries: patent US20240317708A1

Target: recombinant human transglutaminase 2 (Homo sapiens, UniProt P21980)
Sequence (P21980 whole entry): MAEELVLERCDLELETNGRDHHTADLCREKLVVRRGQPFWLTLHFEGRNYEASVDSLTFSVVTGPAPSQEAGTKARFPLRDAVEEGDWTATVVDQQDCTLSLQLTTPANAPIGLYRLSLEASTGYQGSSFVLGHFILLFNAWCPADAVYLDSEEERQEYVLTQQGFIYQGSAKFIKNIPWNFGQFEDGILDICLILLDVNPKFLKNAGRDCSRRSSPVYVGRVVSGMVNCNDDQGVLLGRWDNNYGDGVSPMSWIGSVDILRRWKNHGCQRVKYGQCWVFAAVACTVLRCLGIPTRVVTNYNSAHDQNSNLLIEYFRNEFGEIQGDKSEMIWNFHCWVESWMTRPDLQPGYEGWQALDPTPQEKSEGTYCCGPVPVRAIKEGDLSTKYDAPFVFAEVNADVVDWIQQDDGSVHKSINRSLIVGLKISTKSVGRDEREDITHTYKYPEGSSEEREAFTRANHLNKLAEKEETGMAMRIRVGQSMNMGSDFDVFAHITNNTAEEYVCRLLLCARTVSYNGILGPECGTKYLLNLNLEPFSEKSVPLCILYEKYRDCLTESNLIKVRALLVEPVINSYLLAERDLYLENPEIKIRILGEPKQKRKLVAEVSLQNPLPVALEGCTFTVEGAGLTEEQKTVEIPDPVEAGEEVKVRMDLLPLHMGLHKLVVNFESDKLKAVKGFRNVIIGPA
Experiment: Transglutaminase assay (dansylcadaverine incorporation into dimethylcasein, DCC-assay)
Conditions: recombinant human TG2 10 nM, dansylcadaverine/dimethylcasein, 37° C.
pIC50: −log10 of the molar value.
Quick list: pIC50 per entry.
readout.kind: pIC50

{"molecule": "COC(=O)/C=C/CC[C@H](NC(=O)[C@H]1CCNC1)C(=O)Nc1cccn(CC(=O)NC2C3CC4CC(C3)CC2C4)c1=O (stereo partly shown) [III-26]", "readout.kind": "pIC50", "recorded.value": "6.60 to 7.60"}
{"molecule": "O=C(/C=C/CC[C@H](NC(=O)c1cc2ccccc2nn1)C(=O)Nc1cccn(CC(=O)NC23CC(C2)C3)c1=O)NC1CC1 [III-145]", "readout.kind": "pIC50", "recorded.value": "6.60 to 7.60"}
{"molecule": "CC(=O)/C=C/CC[C@H](NC(=O)c1ncn(C)n1)C(=O)Nc1cccn(CC(=O)NC2C3CCCC2CC3)c1=O (stereo partly shown) [III-159]", "readout.kind": "pIC50", "recorded.value": "5.82 to 6.60"}
{"molecule": "COC(=O)/C=C/CC[C@H](NC(=O)c1cnnn1C)C(=O)Nc1cccn(CC(=O)NC2C3CC4CC(C3)CC2C4)c1=O (stereo partly shown) [III-22]", "readout.kind": "pIC50", "recorded.value": "> 7.60"}
{"molecule": "COC(=O)/C=C/CC[C@H](NC(=O)c1c[nH]cn1)C(=O)Nc1cccn(CC(=O)NC2C3CC4CC(C3)CC2C4)c1=O (stereo partly shown) [III-28]", "readout.kind": "pIC50", "recorded.value": "5.82 to 6.60"}
{"molecule": "COC(=O)/C=C/CC[C@H](NC(=O)c1oc2ccccc2c1C)C(=O)Nc1cccn(CC(=O)N[C@@H]2C[C@H]3CC[C@@H]2C3)c1=O [III-63]", "readout.kind": "pIC50", "recorded.value": "> 7.60"}
{"molecule": "COC(=O)/C=C/CC[C@H](NC(=O)[C@H]1COCCN1)C(=O)Nc1cccn(CC(=O)NC2C3CC4CC(C3)CC2C4)c1=O (stereo partly shown) [III-31]", "readout.kind": "pIC50", "recorded.value": "6.60 to 7.60"}
